- subject_of_test: T1, human PD-1 on cells (293T cells transfected with human PD-1) (human, UniProt Q15116 25-288)
- T1 construct: whole, on cells; Also used as the target for the functional rows, where PD-1 stands on human T cells
- measurement_protocol: FACS on hPD-1-293T cells
property_label: EC50
Write the numeric value and follow it with the unit.

Examples with answers:
INSERT INTO assay_data (binder, val) VALUES
  ('4C10 murine anti-PD-1 antibody (antibody, V domains shown, Purified hybridoma antibody; also called 4C10-mIgG1) VH: QVQLKQSGPGLVQPSQNLSVTCTVSGFSLTTYGVHWVRQSPGKGLEWLGVIWSGGSTDYNAAFISRLTISKDNARSQVFFKMNSLQVNDTAMYYCAREKSVYGNYVGAMDYWGQGTSVTVSS VL: SIVMTQTPKFLLVSAGDRVTITCKASQSVSDDVAWYQQKPGQSPKLLIYYAFNRYTGVPDRFTGSGYGTDFTFTISTVQSEDLAVYFCQQDYRSPWTFGGGTKLEIKR', '0.109 µg/mL'),
  ('6E1 murine anti-PD-1 antibody (antibody, V domains shown, Purified hybridoma antibody; also called 6E1-mIgG1) VH: EVKLVESGGGLVKPGGSLKLSCAASGFTFSSYGMSWVRQTPEKRLEWVATISGGGRDTYYLDSVKGRFTISRDNAKNNLYLQMSSLRSEDTALYYCVRQYYDDWFAYWGQGTLVSNSA VL: DIVLTQTPATLSVTPGDSVSLSCRASQSLSNNLHWYQQKSHESPRLLIKYASQSISGIPSRFSGSGSGTDFTLSINSVETEDFGMYFCQQSNSWPLTFGAGTKLEMKR', '0.0491 µg/mL'),
  ('15H5 murine anti-PD-1 antibody (antibody, V domains shown, Purified hybridoma antibody; also called 15H5-mIgG1) VH: EVKLVESGGGLVKPGGSLKLSCAASGFAFRSYDMSWVRQTPEKILEWVATISGGGSYTYYQDSVKGRFTISRDNARNTLYLQMSSLRSEDTALYYCASPYGPYFDYWGQGTTLTVSS VL: DIQMNQSPSSLSASLGDTITITCHASQSINVWLSWYQQKPGNIPKLLIYRASNLHTGVPSRFSGSGSGTGFTLTISSLQPDDIATYYCQQGQSYPWTFGGGTKLEIKR', '0.0454 µg/mL'),
  ('7A4 murine anti-PD-1 antibody (antibody, V domains shown, Purified hybridoma antibody; also called 7A4-mIgG1) VH: QIHLVQSGPELKKPGETVKISCKASGYTFTNFGMNWVKQAPGKGLKWMGWISGYTREPTYAADFKGRFAISLETSASTAYLQINDLKNEDMATYFCARDVFDYWGQGTTLTVSS VL: DIVLTQSPASLAVSLGQRATISCRASESVDNYGYSFMNWFQQKPGQPPKLLIYRASNLESGIPARFSGSGSRTNFTLTINPVEADDVATYFCQQSNADPTFGGGTNLEIKR', '0.0389 µg/mL'),
  ('7D3 murine anti-PD-1 antibody (antibody, V domains shown, Purified hybridoma antibody; also called 7D3-mIgG1) VH: EVKLVESGGGLVKPGGSLKLSCGASGFTFSSYGMSWVRQTPEKRLEWVATISGGGRDIYYPDSVKGRLTISRDNAKNNLYLQMSSLRSEDTALYYCVRQYYDDWFAYWGQGTLVTVSA VL: DIVLTQSPATLSVTPGDSVSLSCRASQSISNDLHWYQQKSHESPRLLIKYVSQSISGIPSRFSGSGSGTDFTLSINSVETEDFGMYFCQQSDSWPLTFGAGTKLELKR', '0.0527 µg/mL');

Return reported EC50; argument: 13F1 murine anti-PD-1 antibody (antibody, V domains shown, Purified hybridoma antibody; also called 13F1-mIgG1) VH: DVQLQESGPGLVKPSQSLSLTCTVTGYSITSDYAWNWIRQFPGNQLEWMAYISYSGYTSYNPSLKSRISITRDTSKNQFFLQLNSVTTEDTATYYCARSLDYDYGTMDYWGQGTSVTVSS VL: QIVLSQSPAILSASPGEKVTMTCRANSSVSSMHWYQQKPGSSPEPWIYAISNLAFGVPTRFSGSGSGTSYSLTISRVEAEDAATYFCQQWSSRPPTFGGGTKLEIKR
0.0308 µg/mL

Please give the result for 22A5 murine anti-PD-1 antibody (antibody, V domains shown, Purified hybridoma antibody; also called 22A5-mIgG1) VH: EVKLVESGGGLVKPGGSLKLSCSASGFSFSYYDMSWVRQTPEKGLEWVATISGGGRNTYFIDSVKGRFTISRDNVKNNLYLLMSSLRSEDTALYYCASPYEGAVDFWGQGTSVTVSS VL: DIVMTQSHKVMSTSVGDRVSITCKASQDVDNAVAWYQQNPGQSPKLLIKWASTRHHGVPDRFTGSGSGTDFTLTISTVQSEDLADFFCQQYSTFPYTFGGGTKLEIKR too.
0.0775 µg/mL
